Experiment: M. tuberculosis growth inhibition, HTS (AID 1259417);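 further: bacteria grown with compound for 5 days at 37 °C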
Details: M. tuberculosis DsRed fluorescence growth inhibition; concentration not given here
Screen size: about 1,100 compounds; about 760 (69%) were called active. How the calls were made is not given here. So high a share suggests a set chosen from earlier hits. The list shows a part of the results.
Your response should consist of one outcome taken from active, inactive

// known answers, use as guide
1) c1ccc(CC2CCN(c3nc4ccccc4n4cnnc34)CC2)cc1 :: active
2) Cc1ccc(OCC(O)CN2CCN(CC(O)COc3ccc(C)cc3C)CC2)c(C)c1 (stereo not given) :: active
3) OC(COc1ccccc1Cl)CN1CCN(C(c2ccccc2)c2ccccc2)CC1 (stereo not given) :: inactive
4) Cc1ccc(-c2csc(Nc3ccc(C(=O)O)c(O)c3)n2)cc1 :: active

Please examine the following record next.
For O=C1c2cccc3cccc(c23)C(=O)N1CC1CCN(CC(O)COc2ccc3ccccc3c2)CC1 (stereo not given) , which call appears in the assay record?
active
